Tested on: SNB-19 CNS
Assay name: NCI-60 one-dose screen, 48 h (100 = growth as untreated, 0 = no growth, -100 = all killed)
Test parameters: 10 µM unless noted
Compounds without any hit were thinned out: in the full panel of roughly 83,000, 20% have a hit.
Hi there, I'd appreciate the recorded growth for every entry that follows.
One number for each entry, in %.

Here are 3 compounds together with their reported answers.
Compound	System tested	Value type	Observed value
N#Cc1c(N)nc(NCCO)nc1-c1ccc(F)cc1	SNB-19 CNS	growth	104
O=C(/C=C/c1c(Cl)nc2sccn12)c1ccc(F)c(F)c1	SNB-19 CNS	growth	87.9
COc1cc(/C=C2\C(=O)ON=C2C)cc(OC)c1OC	SNB-19 CNS	growth	95.6

For every record below, what is its growth?
1. NC(=O)c1ccc[n+](Cc2ccc(Cl)cc2Cl)c1
2. Cc1ccccc1NC(=O)N/C(N)=N/c1nc(C)c(C)s1

Reply:
101
39.9

For every record below, what is its growth?
1. O=[N+]([O-])c1ccc(-c2cc(-c3ccc(Nc4nc(Nc5ccc(Cl)cc5)nc(Nc5ccc(Cl)cc5)n4)cc3)no2)cc1
2. CC1OC(O[C@H]2/C=C/C=C/C=C/C=C/C=C/C=C/C=C/[C@H](C)[C@@H](O)[C@@H](C)[C@H](C)OC(=O)CC(O)CC(O)CCC(O)C(O)CC(O)C[C@]3(O)C[C@H](O)C(C(=O)O)C(C2)O3)C(O)[C@H](N)C1O (stereo not given in full)
3. CCN(CC)CCCC(C)Nc1c2ccc(Cl)cc2nc2ccc(O)cc12 (stereo not given)
4. Cc1cc(Cl)ccc1Nc1nc(C(F)(F)F)ccc1C(=O)N/N=C/c1ccc(N(C)C)cc1
5. Cc1nn(-c2ccccc2)c2nc3c(c(-c4ccc(Cl)cc4)c12)CNC1(CCSCC1)N3

Reply:
98.2
40.2
44.8
42
106

====

Tested on: CAKI-1 renal
Assay name: NCI-60 one-dose screen, 48 h (100 = growth as untreated, 0 = no growth, -100 = all killed)
Test parameters: 10 µM unless noted
The panel holds about 83,000 compounds, 20% with a hit somewhere; the sample as a whole holds those more often.
Value type: growth (%)
Answers are plain numbers, in %.

Here are 3 compounds together with their reported answers.
>>> df
                                   compound  value_type  observed_value
0  O=C(Nc1cccc2c(O)c(N=Nc3ccc(S(=O)(=O)Nc4nccs4)cc3)cc(N=Nc3ccc(S(=O)(=O)Nc4nccs4)cc3)c12)C(Cl)Cl      growth            76.8
1  O=C(c1ccccc1)N1N=C(c2ccccc2)CC1c1nnc2n(Cc3ccccc3)c(=O)c3c4c(sc3n12)CCCC4 (centres undefined)      growth            99.3
2  CC1(C)CC[C@]2(C(=O)N3CCOCC3)CC[C@]3(C)C(=CC[C@@H]4[C@@]5(C)CC[C@H](OC(=O)c6cccnc6)C(C)(C)[C@@H]5CC[C@]43C)[C@@H]2C1      growth            40.1

Now, please, on to the next compound.
Cc1ccc(S(=O)(=O)Oc2cc(OS(=O)(=O)c3ccc(C)cc3)cc(OS(=O)(=O)c3ccc(C)cc3)c2)cc1 tested on CAKI-1 renal gave growth: 84.2

====

Tested on: NCI-H460 lung
Assay name: NCI-60 one-dose screen, 48 h
Test parameters: 10 µM unless noted
About 83,000 compounds went through this panel and 20% of them were active in at least one assay; those are over-represented in the sample as a whole. Calls of active or inactive are those of the source. The calls were made as follows: active = growth percent below 10; inactive = the rest.
// classify into t = active, f = inactive

                                   compound  system_tested  cat
0  COc1ccc(NC(=O)CSc2nc(C)c(C(C)=O)n2-c2ccc([N+](=O)[O-])cc2)cc1  NCI-H460 lung    f
1  NC(=N\N=C/c1ccccc1[N+](=O)[O-])/C(N)=N\N=C/c1ccccc1[N+](=O)[O-]  NCI-H460 lung    f
2  CCCCNC(=O)Oc1ccc2c(=O)c3sc4c(=O)c5ccccc5c(=O)c4c3c(=O)c2c1  NCI-H460 lung    t
3            N=C1CCC(=N)c2c1c(O)c1ccccc1c2O  NCI-H460 lung    f

Now take the following compound into account.
Task item: // param item: COc1cc(C2NC(=O)c3ccccc3N2)ccc1OCCCCCOc1c(OC)cc(C2=NOC(c3cc(OC)c(OC)c(OC)c3)C2)cc1OC (stereo not given) ; yields the recorded call
Reply: f

====

System: MOLT-4 leukemia
Assay name: NCI-60 one-dose screen, 48 h
Test parameters: 10 µM unless noted
The panel holds about 83,000 compounds, 20% with a hit somewhere; the sample as a whole holds those more often. Calls of active or inactive are those of the source. How the source made its calls: active means growth percent below 10; inactive means the rest.
// classify into active, inactive

In [3]: df
Out[3]:
                                   compound    system_tested       cat
0  O=C1c2cccc(NCCN=Cc3cc([N+](=O)[O-])ccc3O)c2C(=O)c2c(NCCN=Cc3cc([N+](=O)[O-])ccc3O)cccc21  MOLT-4 leukemia    active
1  N#Cc1c(-c2ccccc2)cc(-c2ccc(Nc3nc(Nc4ccc(F)cc4)nc(Nc4ccc(F)cc4)n3)cc2)nc1N  MOLT-4 leukemia  inactive
2                    O=c1oc2ccccc2c(Cl)c1Cl  MOLT-4 leukemia  inactive
3  Nc1n[nH]c2cc(F)c([C@@H]3Nc4c(F)cc5[nH]ncc5c4[C@H]4C5CCC(C5)[C@@H]34)cc12 (some centres undefined)  MOLT-4 leukemia  inactive
4  S=C(c1ccc2c(c1)OCO2)N1CCN(c2ccccc2Cl)CC1  MOLT-4 leukemia  inactive

Now take the following compound into account.
Task item: // param item: Cc1ccc(NS(=O)(=O)c2ccc3c(c2)C(=O)CC(c2ccc(C(=O)C(C)C)cc2)N3)cc1C (centres undefined) ; yields the recorded call
Reply: inactive

====

Hi there, I'd appreciate the recorded growth for every entry that follows.
System: COLO 205 colon
Assay name: NCI-60 one-dose screen, 48 h (100 = growth as untreated, 0 = no growth, -100 = all killed)
Test parameters: 10 µM unless noted
About 83,000 compounds went through this panel and 20% of them were active in at least one assay; those are over-represented in the sample as a whole.
Answers are plain numbers, in %.

Compound	System tested	growth / %
O=C1c2cccc(NCCN=Cc3cc([N+](=O)[O-])ccc3O)c2C(=O)c2c(NCCN=Cc3cc([N+](=O)[O-])ccc3O)cccc21	COLO 205 colon	55.9
O=C(Cc1ccc(F)c(F)c1)Nc1cc(C2(C(F)(F)F)CC2)nn1Cc1ccccc1	COLO 205 colon	-86.7
O=c1cc(-c2ccc(Cl)cc2)[nH]c2ccccc12	COLO 205 colon	99.7

For every record below, what is its growth?
1. COc1cc2c(cc1-c1c(C)noc1C)ncc1nc(C3CCC(F)(F)CC3)n(C3CCC(OC(F)F)CC3)c12 (centres undefined)
2. c1csc(-c2c3ccc(=[N+]4CCCCC4)cc-3oc3cc(N4CCCCC4)ccc23)c1
3. COc1ccc(Cl)cc1NC(=O)C(Br)C(Br)C(=O)O (centres undefined)
4. CN(C)c1ccc(/C=C/C(=O)c2cccc(Nc3nc(Nc4ccccc4)nc(Nc4ccccc4)n3)c2)cc1
5. Cc1ccccc1NC(=O)N/C(N)=N/c1nc(C)c(C)s1
6. O=C1N=c2cc3c(cc2=C/C1=C/c1sc(=S)n(CCc2ccc(O)cc2)c1O)OCCO3
7. COc1cc(/C=C/C(=O)c2c(C)nc3ccccc3c2C)ccc1OCCCN1CCN(C(=O)c2ccco2)CC1
8. Clc1ccc(-c2c3ccc(=[N+]4CCCCC4)cc-3oc3cc(N4CCCCC4)ccc23)cc1

Reply:
[28.4, -61.5, 105, 81.5, 10.1, 75.6, 99.1, -71.1]

====

Test system: SW-620 colon
Assay name: NCI-60 one-dose screen, 48 h (100 = growth as untreated, 0 = no growth, -100 = all killed)
Test parameters: 10 µM unless noted
Compounds without any hit were thinned out: in the full panel of roughly 83,000, 20% have a hit.
Use 70% as the dividing line for growth, with the line itself on the fulfilled side and lower values as not fulfilled.

Task item: Textbook exercise: given the entry COc1ccc(/C=C/c2c(C(=O)/C=C/c3cccs3)c(C)nc3ccccc23)cc1 , state whether its growth is greater than or equal to 70%.
Reply: fulfilled

Task item: Textbook exercise: given the entry CN(C)CCNc1nc2ccccc2c2c1c1c(n2Cc2ccccc2)-c2ccccc2C1=O , state whether its growth is greater than or equal to 70%.
Reply: not fulfilled

Task item: Textbook exercise: given the entry CNC(=O)NCC1OC(n2cnc3c(NC(=O)Nc4ccccc4)ncnc32)C(O[Si](C)(C)C(C)(C)C)C1CC(=O)N(C)OC (stereo not given) , state whether its growth is greater than or equal to 70%.
Reply: not fulfilled

Task item: Textbook exercise: given the entry O=C1CCC2=C3C4CCCCC4C(=O)C4CCCC(OC2C1)C34 (stereo not given) , state whether its growth is greater than or equal to 70%.
Reply: not fulfilled

Task item: Textbook exercise: given the entry CCc1ccccc1-n1c(-c2ccc(Cl)cc2)cc(-c2ccc(Cl)cc2)c(C#N)c1=O , state whether its growth is greater than or equal to 70%.
Reply: fulfilled

Data origin: PubChem BioAssay (NCI)
